Consider the following compounds and their measured GI50 readings.
# Tested on: HCT-15
Where a SMILES comes first, the peptide text is derived from it. [ ]: non-standard residue; d: D form. Phe(4-NO2) = N[CH](Cc1ccc([N+](=O)[O-])cc1)C(=O)O
propertyMeasured: GI50

compound | propertyMeasured | measurement
COC(=O)Nc1nc2cc(Br)ccc2[nH]1 | GI50 | 8.34 µM
COC(=O)CCC(NC(=O)C(CCC(=O)OC)NC(=O)C(CCC(=O)OC)NC(=O)C(CCC(=O)OC)NC(=O)C(CCC(=O)OC)NC(=O)C(Cc1ccc([N+](=O)[O-])cc1)NC(=O)C(CCC(=O)OC)NC(=O)C(CCC(=O)OC)NC(=O)C(CCC(=O)OC)NC(=O)C(CCC(=O)OC)NC(=O)C(CCC(=O)OC)NC(C)=O)C(N)=O (stereo unspecified) (Ac-E(OMe)E(OMe)E(OMe)E(OMe)E(OMe)[Phe(4-NO2)]E(OMe)E(OMe)E(OMe)E(OMe)E(OMe)-NH2; configuration not given here) | GI50 | > 10 µM
Cc1cc(N(CCC#N)S(=O)(=O)c2ccccc2)ccc1/C=C1N=C(/C=C/c2ccccc2)OC\1=O | GI50 | > 100 µM
COC(=O)c1ccccc1CC(Cc1ccc2c(c1)CCC2)C(=O)OC (stereo unspecified) | GI50 | > 100 µM
CCCCC(C(=O)CCC(=O)Nc1ccc(Cl)c(Cl)c1)C(=O)C(C)C (stereo unspecified) | GI50 | > 100 µM
OC1(c2ccc3ccccc3c2)c2c(c3ccccc3c3ccccc23)C2=NCCN21 (stereo unspecified) | GI50 | 4.63 µM

* * *

# Test system: TK-10
# assayName: NCI tumour cell line growth inhibition, 48 h
Active and inactive are the calls of the source. Rule as the data show it: active = GI50 up to about 1.1 µM and inactive = higher.
propertyMeasured: GI50

compound | measurement
O=C(CCC(=O)c1ccsc1)c1ccsc1 | > 100 µM (inactive)
COCOc1cc(OC)ccc1C/C(=N/O)C(=O)OC | > 100 µM (inactive)
Cc1ccn2c(c1)nc1nc3ccccc3nc12 | > 100 µM (inactive)
CC1=C(c2cc(C(=O)Nc3cc(C)ccc3C)nc(N)n2)Sc2ccccc2N1 | > 100 µM (inactive)
CCOC(=O)c1ccc(N(C)Cc2cnc3nc(N)nc(N)c3n2)cc1 | 13.8 µM (inactive)
C=CCc1cc(OC)c2c(c1)C(OC)CC(c1ccc(OC)c(OC)c1)O2 (stereo unspecified) | > 100 µM (inactive)

* * *

# Tested on: UO-31
# assayName: NCI tumour cell line growth inhibition, 48 h
Activity calls are given as the source filed them. Rule as the data show it: active = GI50 up to about 1.1 µM and inactive = higher.

molecule | GI50
Fc1ccc(C(=C2CCN(CCc3ccc4[nH]c(=S)[nH]c4c3)CC2)c2ccc(F)cc2)cc1 | 2.67 µM (inactive)
CC(=N/N=C/c1ccccn1)/C(C)=N/N=C(C)/C(C)=N/N=C(C)/C(C)=N/N=C(C)/C(C)=N\N=C\c1ccccn1 | > 100 µM (inactive)
c1ccc(N/N=N/c2ccc(-c3nc4ccccc4o3)cc2)nc1 | 26.6 µM (inactive)
CCOC(=O)C1S/C(=N/c2ccc(Cl)cc2C)N=C1C (centres undefined) | 17.3 µM (inactive)
CCCCCCc1cc2cc(-c3cn4ccsc4n3)c(=O)oc2cc1O | > 100 µM (inactive)
CC1=C(C(N)=O)C(c2ccncc2)C(C#N)=C2SCC(=O)N12 (centres undefined) | > 100 µM (inactive)
CCCCCCCCCCCCCCCC(=O)OCC1OC(n2cc(F)c(=O)[nH]c2=O)C(NC(=O)N(CCCl)N=O)C(O)C1O (centres undefined) | 12.3 µM (inactive)
CCOC(=O)C1=C(C)C2C=C(c3cccs3)CC(c3ccc(Cl)cc3)=C2OC1=O (centres undefined) | 13.3 µM (inactive)
CCOC(=O)Cc1cc(=O)[nH]c(-n2[nH]c(C)c(CCO)c2=O)n1 | > 100 µM (inactive)

* * *

# Test system: HCT-116
# assayName: NCI tumour cell line growth inhibition, 48 h
The source made the active and inactive calls. Rule as the data show it: active = GI50 up to about 1.1 µM and inactive = higher. Where a SMILES comes first, the peptide text is derived from it. [ ]: non-standard residue; d: D form. Phe(4-NO2) = N[CH](Cc1ccc([N+](=O)[O-])cc1)C(=O)O
Consider the following compounds and their measured GI50 readings.
propertyMeasured: GI50

compound | propertyMeasured | measurement
COC(=O)CCC(NC(=O)C(CCC(=O)OC)NC(=O)C(CCC(=O)OC)NC(=O)C(CCC(=O)OC)NC(=O)C(CCC(=O)OC)NC(=O)C(Cc1ccc([N+](=O)[O-])cc1)NC(=O)C(CCC(=O)OC)NC(=O)C(CCC(=O)OC)NC(=O)C(CCC(=O)OC)NC(=O)C(CCC(=O)OC)NC(=O)C(CCC(=O)OC)NC(C)=O)C(N)=O (configuration not stated) (Ac-E(OMe)E(OMe)E(OMe)E(OMe)E(OMe)[Phe(4-NO2)]E(OMe)E(OMe)E(OMe)E(OMe)E(OMe)-NH2; configuration not given here) | GI50 | > 100 µM (inactive)
CCCCP1(=O)C=CC(Cl)=C(C)C1 (configuration not stated) | GI50 | > 100 µM (inactive)
CC(C)(NC(=O)OCc1ccccc1)C(=O)OC(=O)C(C)(C)NC(=O)OCc1ccccc1 | GI50 | > 100 µM (inactive)
CCOC(=O)c1c[nH]cc1-c1cn(S(=O)(=O)c2ccccc2)cc1C | GI50 | 21.6 µM (inactive)
CC1[C@@H](OCc2ccccc2)COC(=O)N1Cc1ccccc1 (some centres not stated) | GI50 | > 100 µM (inactive)
CC(=O)OCC(C)C1=C(OC(C)=O)C(=O)C2(C)C/C=C(/C)CC/C=C(\C)CCC(OC(C)=O)C(C)CCC12 (configuration not stated) | GI50 | 16.9 µM (inactive)
COc1ccc(C2Oc3c(cc(O)c(OC)c3C)[C@@H]2C)cc1OC (some centres not stated) | GI50 | > 100 µM (inactive)

* * *

# Tested on: DLD-1
# assayName: NCI tumour cell line growth inhibition, 48 h
Activity calls are given as the source filed them. Cut-off read from the data, not from the text of the source: active = GI50 up to about 1.1 µM and inactive = higher.
propertyMeasured: GI50

compound | measurement
Cc1cc(N(CCC#N)S(=O)(=O)c2ccccc2)ccc1/C=C1N=C(/C=C/c2ccccc2)OC\1=O | > 100 µM (inactive)
CC(=O)Nc1ccc(C(=O)NN2C(=O)C(Cl)C2c2ccc(O)cc2)cc1 (stereo not given) | > 100 µM (inactive)
Nc1ncc(CN2CCCC2)c(-c2ccccc2O)n1 | > 750 µM (inactive)
COc1ccc(C2C(C)C(=O)C(C)C(c3ccc(OC)cc3)N2N=O)cc1 (stereo not given) | > 1000 µM (inactive)
CC1=CC(=O)NP(=O)(C23CC4CC(CC(C4)C2)C3)N1 (stereo not given) | > 100 µM (inactive)
CC(=O)Nc1ccccc1-c1cnc2ccccc2n1 | > 100 µM (inactive)
C=CCc1cc(-c2cc(CC=C)c(O)c(CN(CC)CC)c2)cc(CN(CC)CC)c1O | 70.1 µM (inactive)
O=[N+]([O-])c1nccn1COCCBr | > 100 µM (inactive)
CC1(C)CC(=O)C(CC2C(=O)c3ccccc3C2=O)C(=O)C1 | > 100 µM (inactive)
COc1cc(/C=C2\[C@H]3c4c(c(OC)c(C)c(OC)c4OC)C[C@@H](C(=O)N2Cc2ccccc2)N3C(=O)OCC(C)C)c(OC)c(C)c1OC | > 100 µM (inactive)

* * *

# Test system: 786-0
# assayName: NCI tumour cell line growth inhibition, 48 h
Calls of active or inactive are those of the source. No stated cut-off is given here; in the data, active = GI50 up to about 1.1 µM and inactive = higher.
Consider the following compounds and their measured GI50 readings.

compound | GI50
Clc1ccc(Cl)c(/N=N\c2cc3c4c(c2)CCN4CCC3)c1 | > 10 µM (inactive)
CCCCC(C(=O)CCC(=O)Nc1ccc(Cl)c(Cl)c1)C(=O)C(C)C (stereo unspecified) | > 100 µM (inactive)
CC1(C)CCC(C)(C)c2c1ccc(O)c2Cc1c(O)ccc2c1C(C)(C)CCC2(C)C | 1.92 µM (inactive)
CC(=O)NC(CCCCN)C(=O)NCc1ccccc1 (stereo unspecified) | > 100 µM (inactive)
O=C1OC(O)C(Oc2c(Cl)cccc2Cl)=C1Cl (stereo unspecified) | 17.1 µM (inactive)
C=CS(=O)(=O)c1c2cc(OC)ccc2nc2ccc(OC)cc12 | 2.37 µM (inactive)
CCCCn1c(C)c(C)c2c1NN=C(C#N)S2(=O)=O | > 100 µM (inactive)
COc1ccc(N2C(=O)C(C)SC2c2cc3cc(Br)ccc3nc2Cl)cc1 (stereo unspecified) | 45.8 µM (inactive)
CC[C@@H]1C[C@H]2CC3c4[nH]c5ccc(O)cc5c4CCN(C2)C31 | > 100 µM (inactive)
COc1c2occc2c(OC)c2c(=O)c(S(=O)(=O)NC(=O)Nc3ccc(Cl)cc3)coc12 | > 10 µM (inactive)
Nc1ncnc2c1N=C(c1ccccc1)CC(c1ccccc1)N2 (stereo unspecified) | > 100 µM (inactive)

* * *

# Tested on: SK-MEL-28
# assayName: NCI tumour cell line growth inhibition, 48 h
Active and inactive are the calls of the source. Cut-off read from the data, not from the text of the source: active = GI50 up to about 1.1 µM and inactive = higher.
propertyMeasured: GI50

compound | measurement
CCOC(=O)N/N=C/C1=NN(C(=O)OCC)[S+]([O-])C1C (stereo unspecified) | > 100 µM (inactive)
C[C@H](CCC(=O)O[C@@H]1CC[C@@]2(C)C(CC[C@H]3[C@@H]4CC[C@H]([C@H](C)CCc5nc6ccccc6[nH]5)[C@@]4(C)CC[C@@H]32)C1)[C@H]1CC[C@H]2[C@@H]3CCC4C[C@H](O)CC[C@]4(C)[C@H]3CC[C@]12C (stereo partly specified) | > 100 µM (inactive)
C=CCc1cc(-c2cc(CC=C)c(O)c(CN(CC)CC)c2)cc(CN(CC)CC)c1O | 28.6 µM (inactive)
Cc1c2ncccc2cc2oc3ccccc3c(=O)c12 | > 100 µM (inactive)
Cn1ccnc1S/C(=C\C=C(C#N)C#N)c1ccc(Cl)cc1 | 4.06 µM (inactive)
Cn1c(=O)c2nc(N3CCOCC3)cnc2n(C)c1=O | > 100 µM (inactive)
CSc1cc(-c2cccs2)sc1-c1cc(SC)c(-c2sc(-c3sc(-c4cccs4)cc3SC)cc2SC)s1 | > 100 µM (inactive)
O=C1C(NS(=O)(=O)c2ccccc2)=C(n2cnc3ccccc32)C(=O)c2ccccc21 | > 100 µM (inactive)
CC(NCCS(=O)(=O)O)C(=O)O (stereo unspecified) | > 100 µM (inactive)
COc1ccc(C(=O)c2sc(Nc3ccccc3)nc2N)cc1 | > 100 µM (inactive)
COC(=O)C1CC=C(SC(=O)c2ccccc2)N1C(=O)c1ccccc1 (stereo unspecified) | > 100 µM (inactive)
